These data points were gathered from patent US20240117334A1.

This section presents binders with their documented fB Cleavage EC50 values.
# targetUnderTest: Human Factor B (human) (UniProt P00751)
# Sequence (P00751 26-764 limits assumed): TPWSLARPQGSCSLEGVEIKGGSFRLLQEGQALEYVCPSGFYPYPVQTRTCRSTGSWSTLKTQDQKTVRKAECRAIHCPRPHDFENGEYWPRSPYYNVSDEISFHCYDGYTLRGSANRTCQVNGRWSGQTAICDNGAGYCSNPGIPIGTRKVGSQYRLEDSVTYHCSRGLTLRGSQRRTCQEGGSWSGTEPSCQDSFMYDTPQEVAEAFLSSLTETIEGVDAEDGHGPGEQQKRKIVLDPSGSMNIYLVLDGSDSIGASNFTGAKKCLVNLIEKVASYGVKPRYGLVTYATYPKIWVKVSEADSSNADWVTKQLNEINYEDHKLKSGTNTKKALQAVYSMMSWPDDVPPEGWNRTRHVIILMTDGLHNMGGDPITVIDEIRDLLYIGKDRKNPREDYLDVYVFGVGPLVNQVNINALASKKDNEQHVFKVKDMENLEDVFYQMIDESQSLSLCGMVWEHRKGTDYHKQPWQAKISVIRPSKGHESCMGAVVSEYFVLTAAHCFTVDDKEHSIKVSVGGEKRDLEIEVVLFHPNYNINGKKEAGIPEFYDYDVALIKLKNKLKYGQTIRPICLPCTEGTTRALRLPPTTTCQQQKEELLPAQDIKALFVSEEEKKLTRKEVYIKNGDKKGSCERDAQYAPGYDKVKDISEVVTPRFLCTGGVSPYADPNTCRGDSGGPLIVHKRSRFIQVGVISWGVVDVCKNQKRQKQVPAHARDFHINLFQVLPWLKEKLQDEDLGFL
# measurementDescription: cell-based or functional assay

binder	fB Cleavage EC50 / nM
chymase C22S/K40L/L99N/F173Y/D175N/S218L/A226R (enzyme) IIGGTESKPHSRPYMAYLEIVTSNGPSLFCGGFLIRRNFVLTAAHCAGRSITVTLGAHNITEEEDTWQKLEVIKQFRHPKYNTSTNHHDIMLLKLKEKASLTLAVGTLPFPSQFNFVPPGRMCRVAGWGRTGVLKPGSDTLQEVKLRLMDPQACSHYRNFDHNLQLCVGNPRKTKSAFKGDSGGPLLCAGVAQGIVSYGRLDAKPPRVFTRISHYRPWINQILQAN	113
chymase C22S/F41V/L99H/F173L/Y215K/A226R (enzyme) IIGGTESKPHSRPYMAYLEIVTSNGPSKVCGGFLIRRNFVLTAAHCAGRSITVTLGAHNITEEEDTWQKLEVIKQFRHPKYNTSTHHHDIMLLKLKEKASLTLAVGTLPFPSQFNFVPPGRMCRVAGWGRTGVLKPGSDTLQEVKLRLMDPQACSHLRDFDHNLQLCVGNPRKTKSAFKGDSGGPLLCAGVAQGIVSKGRSDAKPPRVFTRISHYRPWINQILQAN	8730
chymase C22S/P38Q/K40L/F41R/L99N/V138I/F173Y/D175T/A190S/V213A/S218V/A226R (enzyme) IIGGTESKPHSRPYMAYLEIVTSNGQSLRCGGFLIRRNFVLTAAHCAGRSITVTLGAHNITEEEDTWQKLEVIKQFRHPKYNTSTNHHDIMLLKLKEKASLTLAVGTLPFPSQFNFVPPGRMCRIAGWGRTGVLKPGSDTLQEVKLRLMDPQACSHYRTFDHNLQLCVGNPRKTKSSFKGDSGGPLLCAGVAQGIASYGRVDAKPPRVFTRISHYRPWINQILQAN	57.6
